Target: T1, recombinant LILRB1 ECD (human, UniProt Q8NHL6 24-461)
T1 construct: also called biotinylated LILRB1 ECD
T1 sequence (Q8NHL6 24-461 limits assumed): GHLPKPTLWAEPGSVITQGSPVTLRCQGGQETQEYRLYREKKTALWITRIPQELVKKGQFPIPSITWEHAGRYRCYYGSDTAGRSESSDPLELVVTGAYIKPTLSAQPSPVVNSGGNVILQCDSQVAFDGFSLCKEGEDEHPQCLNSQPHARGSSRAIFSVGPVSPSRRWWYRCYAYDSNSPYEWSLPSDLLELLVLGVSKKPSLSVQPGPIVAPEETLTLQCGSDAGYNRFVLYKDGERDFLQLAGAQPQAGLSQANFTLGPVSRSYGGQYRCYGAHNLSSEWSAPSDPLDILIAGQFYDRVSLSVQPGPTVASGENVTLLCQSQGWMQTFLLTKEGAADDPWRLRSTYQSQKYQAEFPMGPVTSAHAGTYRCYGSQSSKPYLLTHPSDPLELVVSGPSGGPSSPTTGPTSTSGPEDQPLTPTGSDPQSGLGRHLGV
Assay: BLI, IgG on AHC sensor, ECD in solution
Assay readout: Kd (nM)
Respond numerically; units are nM and should not be typed.

# Binder, Assay readout, Meas value
rows = [
    ("A-024 (antibody, V domains shown, tested as IgG) VH: QVQLVQSGAEVKKPGSSVKVSCKASGYTFTGSAMSWVRQAPGQGLEWMGGILPIFGTSVYAQKFQGRVTITADESTSTAYMELSSLRSEDTAVYYCAKGPPVGSSSWYTDWYFDLWGRGTLVTVSS VL: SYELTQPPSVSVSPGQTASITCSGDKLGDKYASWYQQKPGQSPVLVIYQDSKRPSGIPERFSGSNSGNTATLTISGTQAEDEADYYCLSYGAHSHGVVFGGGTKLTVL", "Kd", 1.2),
    ("A-047 (antibody, V domains shown, tested as IgG) VH: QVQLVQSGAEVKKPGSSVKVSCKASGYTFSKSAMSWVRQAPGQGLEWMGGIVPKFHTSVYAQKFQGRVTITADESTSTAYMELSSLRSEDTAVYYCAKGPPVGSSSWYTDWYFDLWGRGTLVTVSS VL: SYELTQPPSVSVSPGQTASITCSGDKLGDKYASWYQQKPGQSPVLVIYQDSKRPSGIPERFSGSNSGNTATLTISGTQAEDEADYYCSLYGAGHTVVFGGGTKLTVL", "Kd", 2.6),
]

So, A-017 (antibody, V domains shown, tested as IgG) VH: QVQLVQSGAEVKKPGSSVKVSCKASGGTFSSYAISWVRQAPGQGLEWMGGIIPYFSLANYAPKFQGRVTITADESTSTAYMELSSLRSEDTAVYYCAKDLGTYSSGWPYYYGMDVWGQGTTVTVSS VL: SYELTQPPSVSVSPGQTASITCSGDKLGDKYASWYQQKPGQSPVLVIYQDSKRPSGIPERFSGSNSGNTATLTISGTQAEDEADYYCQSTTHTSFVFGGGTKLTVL ? Its Kd was 2.3
